# tgt: Cathepsin S (Homo sapiens)
# Sequence (P25774 whole entry): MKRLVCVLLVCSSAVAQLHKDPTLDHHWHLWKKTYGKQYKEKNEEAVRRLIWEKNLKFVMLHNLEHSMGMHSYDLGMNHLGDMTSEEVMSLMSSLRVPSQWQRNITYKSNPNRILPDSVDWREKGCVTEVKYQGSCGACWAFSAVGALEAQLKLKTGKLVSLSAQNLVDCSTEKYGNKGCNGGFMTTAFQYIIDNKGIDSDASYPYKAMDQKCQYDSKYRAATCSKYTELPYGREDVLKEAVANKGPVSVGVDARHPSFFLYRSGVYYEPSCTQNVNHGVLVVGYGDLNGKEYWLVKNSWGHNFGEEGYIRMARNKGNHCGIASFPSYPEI
# protocol-notes: Inhibition of human recombinant cathepsin-S using Z-Val-Val-Arg-AMC as substrate preincubated for 15 mins measured after 1 hr by QFRET assay
pIC50: −log10 of the molar value.
recorded-metric: pIC50

The following molecules have reported results that may help.
INSERT INTO measurements (smiles_string, tgt, recorded_metric, measured_number) VALUES
  ('Cc1nnc(C)c2cc(N3CCN(C(=O)[C@@H]4CCCC[C@H]4C(=O)NC4(C#N)CC4)[C@H](C)C3)ccc12', 'Cathepsin S (Homo sapiens)', 'pIC50', 5.76),
  ('N#CC1(NC(=O)[C@@H]2CCCC[C@H]2C(=O)N2CCN(c3ccccc3)CC2)CC1', 'Cathepsin S (Homo sapiens)', 'pIC50', 5.65);

a: COc1ccc(N2CCN(C(=O)[C@@H]3CCCC[C@H]3C(=O)NCC#N)CC2)cc1OC
b: CC1(C)CN(c2ccc(S(C)(=O)=O)cc2)CCN1C(=O)[C@@H]1CCCC[C@H]1C(=O)NC1(C#N)CC1
// which entry has the larger pIC50 value, a or b ? Your answer should be the label of the entry you select.
a

---

# protocol-notes: Metabolic stability of the compound in human liver microsomes assessed as compound turnover after 120 mins
recorded-metric: microsomal CLint at 2 h (µL/min/mg)

I: COc1ccc(N2CCN(C(=O)[C@@H]3CCCC[C@H]3C(=O)NC3(C#N)CC3)[C@H](C)C2)nc1OC
II: C[C@@H]1CN(c2ccc3c(c2)OCO3)CCN1C(=O)[C@@H]1CCCC[C@H]1C(=O)NC1(C#N)CC1
In terms of reported microsomal CLint at 2 h, does I or II have the smaller number? Reply with the label of the item you choose.
I

---

# tgt: Cathepsin B (Homo sapiens, UniProt P07858)
# protocol-notes: Inhibition of human recombinant cathepsin-B using Z-Arg-Arg-AMC as substrate preincubated for 15 mins measured after 1 hr by QFRET assay
recorded-metric: IC50 (nM)

INSERT INTO assay_data (compound, recorded_metric, measured_number) VALUES
  ('CS(=O)(=O)c1ccc(N2CCN(C(=O)[C@@H]3CCCC[C@H]3C(=O)NC3(C#N)CC3)CC2)cc1', 'IC50', 2400),
  ('Cc1nn(C)c2ccc(N3CCN(C(=O)[C@@H]4CCCC[C@H]4C(=O)NC4(C#N)CC4)[C@H](C)C3)cc12', 'IC50', 971),
  ('C[C@@H]1CN(c2ccccc2)CCN1C(=O)[C@@H]1CCCC[C@H]1C(=O)NC1(C#N)CC1', 'IC50', 649),
  ('N#CC1(NC(=O)[C@@H]2CCCC[C@H]2C(=O)N2CCN(c3ccccc3)CC2)CC1', 'IC50', 1440),
  ('C[C@H]1CN(c2ccc(S(C)(=O)=O)cc2)CCN1C(=O)[C@@H]1CCCC[C@H]1C(=O)NC1(C#N)CC1', 'IC50', 3430),
  ('Cc1nn(C)c2cc(N3CCN(C(=O)[C@@H]4CCCC[C@H]4C(=O)NC4(C#N)CC4)[C@H](C)C3)ccc12', 'IC50', 766),
  ('C[C@@H]1CN(c2ccccc2)CCN1C(=O)[C@@H]1CCCC[C@H]1C(=O)NCC#N', 'IC50', 462),
  ('COc1ccc(N2CCN(C(=O)[C@@H]3CCCC[C@H]3C(=O)NCC#N)CC2)cc1', 'IC50', 399);

a: N#CCNC(=O)[C@@H]1CCCC[C@H]1C(=O)N1CCN(c2ccc(F)cc2)CC1
b: CC1CN(c2ccc(S(C)(=O)=O)cc2)C(C)CN1C(=O)[C@@H]1CCCC[C@H]1C(=O)NC1(C#N)CC1 (stereo partly specified)
Response body: label of entry with the larger IC50; valid values a , b . // return label of chosen record
b

1: C[C@@H]1CN(c2ccc(S(C)(=O)=O)cc2)CCN1C(=O)[C@@H]1CCCC[C@H]1C(=O)NC1(C#N)CC1
2: C[C@@H]1CN(c2ccc3c(c2)OCO3)CCN1C(=O)[C@@H]1CCCC[C@H]1C(=O)NC1(C#N)CC1
3: COc1ccc(N2CCN(C(=O)[C@@H]3CCCC[C@H]3C(=O)NC3(C#N)CC3)CC2)cc1
Ascending by IC50, please: list the compounds accordingly. // rank by listing labels in the order requested
2, 1, 3

Source listed as ChEMBL document CHEMBL2169826.
